System: RXF 393 renal
Test: NCI tumour cell line growth inhibition, 48 h
Measurement Label: TGI

Item Smiles: Cn1cnc2c(OCC3CCCCC3)nc(N)nc21
Target System: RXF 393 renal
Reported: > 100 µM

Item Smiles: c1ccc2[nH]c3[nH]c4[nH]c5ccccc5[nH]c4[nH]c3[nH]c2c1
Target System: RXF 393 renal
Reported: > 100 µM

Item Smiles: c1ccc2c[n+](CCCCCCCCCC[n+]3ccc4ccccc4c3)ccc2c1
Target System: RXF 393 renal
Reported: > 10 µM

Item Smiles: CC1=NN2C(=O)CC(=O)N=C2S1
Target System: RXF 393 renal
Reported: > 100 µM

Item Smiles: COc1ccc2nc3cc([N+](=O)[O-])ccc3c(NNc3ccc(Cl)cc3)c2c1
Target System: RXF 393 renal
Reported: > 83.4 µM

Item Smiles: COc1ccc(/C=C2\N=C(c3ccccc3)N(Nc3nnc(NN4C(=O)/C(=C/c5ccc(OC)cc5)N=C4c4ccccc4)c4ccccc34)C2=O)cc1
Target System: RXF 393 renal
Reported: > 100 µM

Query block: # lookup: TGI of CN(C)c1nc(N(C)C)n2nc(-c3ccccc3[N+](=O)[O-])nc2n1
Result block: > 100 µM

Query block: Which TGI is reported for this compound? CC(=O)NCCCCCCNC(C)=O
Result block: > 10000 µM

====

Tested on: TK-10 renal
Assay: NCI tumour cell line growth inhibition, 48 h
Reported TGI values for a set of molecules
Give the value, in units of µM, as a plain number.

Molecule: COc1ccc(OC)c(-c2cc(-c3ccccc3)nn2-c2ccc(S(N)(=O)=O)cc2)c1
Unit Of Measurement: µM
TGI: 26
//
Molecule: CCCCN(CCCC)CC(C)(C)C(O)c1ccc(OC)c2ccccc12 (stereo not drawn)
Unit Of Measurement: µM
TGI: 24.3
//
Molecule: CCOC(=O)c1c2c(c(O)c3ccccc3c(O)n(-c3ccc(C)cc3)c1C)C(=O)C=CC2=O
Unit Of Measurement: µM
TGI: 57.2
//
Molecule: CC[C@@H](C)[C@H]([C@H](CC(=O)N1CCC[C@@H]1[C@@H](OC)[C@H](C)C(=O)N[C@H](Cc1ccccc1)c1nccs1)OC)N(C)C(=O)[C@H](NC(=O)[C@@H](C(C)C)N(C)C)C(C)C
Unit Of Measurement: µM
TGI: 98.3

Query block: # input molecule: COc1cc2c(cc1OC)C(Cl)C(c1ccc(Cl)cc1)=C2Cl (stereo not drawn) ; wanted: its TGI
Result block: 43.4

Query block: Look up TGI for this molecule: OCCSCc1cc2c(O)c(c1)Cc1cc(CSCCO)cc(c1O)Cc1cc(CSCCO)cc(c1O)Cc1cc(CSCCO)cc(c1O)C2
Result block: 37

Query block: Entry under review: CN(C)CCNC(=O)c1cccc2nc3c4ccccc4c4ccccc4c3nc12 . Reported TGI?
Result block: 9.86

Query block: Endpoint output: TGI of O=C1C(Cl)=C(Nc2cccc(C(F)(F)F)c2)C(=O)N1Cc1ccccc1Cl . Value?
Result block: 37.5

====

Test system: ACHN renal
Test: NCI tumour cell line growth inhibition, 48 h
Measurement Label: TGI

Compound: CN(C)c1ccc2nc3c(C(=O)O)cc(=O)c(O)c-3oc2c1
TGI: > 100 µM
//
Compound: Cc1cccc2c1Oc1cc(Cl)ccc1C2NC(=O)CN(C)C (stereo not drawn)
TGI: > 100 µM

Query block: Request body: readout TGI, system ACHN renal, query COc1cc(/C=C2/SC(c3ccccc3)N(c3ccc(Cl)cc3)C2=O)cc(OC)c1OC (stereo not drawn) . Return the value.
Result block: > 100 µM

====

Tested on: CCRF-CEM leukemia
Assay: NCI tumour cell line growth inhibition, 48 h
Measurement Label: TGI

Compound: CCCCCCCCCCCCOC1C(C(COC2OC(C(O)CN3CCCCC3)C3OC(C)(C)OC23)NC(=O)Nc2ccccc2)OC2OC(C)(C)OC21 (configuration not stated)
TGI: 2.23 µM
--
Compound: Cc1cnc2[nH]c(-c3ccc(F)cc3)cc(=O)c2c1
TGI: > 100 µM

Query block: Look up TGI for this compound: COC(=O)C1=C(c2cc(OC)c(OC)c(OC)c2)OC(c2cc(OC)c(OC)c(OC)c2)C1COC(C)=O (configuration not stated)
Result block: > 100 µM

Query block: Any idea what its TGI is? The compound is CC(NC(=O)/C(C#N)=C/c1ccc2[nH]ccc2c1)c1ccccc1 (configuration not stated)
Result block: 45.8 µM

Query block: Which TGI value belongs to CC1CCCN(CC(O)CN2CCCc3ccccc32)C1 (configuration not stated) ?
Result block: > 100 µM

Query block: Tell me the measured TGI of Oc1cc(O)cc(/C=C/c2ccc(O)c(O)c2)c1 , please.
Result block: 24.3 µM

Query block: Given OCC(O)COc1c(Cl)ccc(Cl)c1Cl (configuration not stated) , state its recorded TGI.
Result block: > 100 µM

Query block: Give its TGI value. Item: CC1(C)C=C(/C=N/Nc2ccc(Br)cc2)C(C#N)=C(O)C1(C#N)C#N
Result block: > 100 µM

Query block: Any idea what its TGI is? The compound is Cc1nccc2c1cnc1ccnn12
Result block: > 100 µM

Query block: Entry c1ccc([C@@H]2N[C@@]3(CO[Si](c4ccccc4)(c4ccccc4)c4ccccc4)CC[C@H]4CN[C@@H]2[C@H]43)cc1 has what TGI?
Result block: > 100 µM

Query block: Please look up its TGI: O=C(Nc1cccc(C(F)(F)F)c1)c1cccc(NC2=C(Cl)C(=O)N(Cc3ccccc3)C2=O)c1
Result block: 51.6 µM

Query block: I'd like to know its TGI. The compound in question is O=C(CSCC(=O)N/N=C/c1cccc(OCc2ccccc2)c1)N/N=C/c1cccc(OCc2ccccc2)c1
Result block: > 100 µM

Query block: Looking for the measured TGI of Cn1cc2c(=O)n3ncn(-c4ccc(Br)cc4)c3nc2n1 , can you help?
Result block: > 100 µM

Query block: So what's the measured TGI for this one? Cc1[nH]c(=O)nc(CC(O)(c2ccccc2)c2ccccc2)c1-c1ccccc1
Result block: > 100 µM

Query block: Name the reported TGI value associated with the compound COc1ccc(/C=C2\N=C(c3ccccc3)N(Nc3nnc(NN4C(=O)/C(=C/c5ccc(OC)cc5)N=C4c4ccccc4)c4ccccc34)C2=O)cc1
Result block: > 100 µM

Query block: Consider the compound O=C1/C(=C/c2ccc([N+](=O)[O-])s2)Oc2ccccc21 and give its measured TGI.
Result block: 0.874 µM

Query block: Recorded TGI for COc1ccc2nc3cc([N+](=O)[O-])ccc3c(NNc3ccc(Cl)cc3)c2c1 , please?
Result block: 80.1 µM

Query block: TGI for COc1ccc(OC)c(-c2cc(-c3ccccc3)nn2-c2ccc(S(N)(=O)=O)cc2)c1 ?
Result block: > 100 µM

Query block: Recorded TGI of COc1cc2ccc1-c1cc(ccc1O)CC1c3cc4c(cc3CCN1C)Oc1c(OC)cc3c(c1O4)C(C2)N(C)CC3 (configuration not stated) , please.
Result block: 5.18 µM

Query block: Entry COc1ccc(NC(=O)c2sc3nc(C)c(C(O)c4ccc(OC)cc4)cc3c2N)cc1 (configuration not stated) has what TGI?
Result block: > 50 µM

Query block: // returns reported TGI for input COC1C=C(NCC2(CO)CCC2)NC(N)=N1 (configuration not stated)
Result block: > 100 µM

Query block: // returns reported TGI for input N#CCC(=O)N/N=C1/C(=O)NC(=O)C(=O)C1c1nc2ccccc2s1 (configuration not stated)
Result block: > 100 µM

====

Tested on: MDA-MB-231 breast
Test: NCI tumour cell line growth inhibition, 48 h
Measurement Label: TGI

Check out these entries, answers already filled in.
Compound: CC1=CC2(O)OC3(CC2=C(C)C)C(C)CCC13 (stereo not drawn)
TGI: > 100 µM
//
Compound: CCCCN(CCCC)CC(C)(C)C(O)c1ccc(OC)c2ccccc12 (stereo not drawn)
TGI: 21.9 µM
//
Compound: C=C1CC2(OC1=O)c1ccccc1C=Cc1ccccc12
TGI: 5.41 µM
//
Compound: Nc1nc(Cl)cc(NCC2(CO)CCC2)n1
TGI: > 100 µM
//
Compound: COc1cc(/C=C2/SC(c3ccccc3)N(c3ccc(Cl)cc3)C2=O)cc(OC)c1OC (stereo not drawn)
TGI: > 100 µM
//
Compound: CC(=O)n1nc(-c2nc3ccccc3nc2Cl)cc1Cl
TGI: > 100 µM
//
Compound: COc1ccc(NC(=O)c2sc3nc(C)c(C(O)c4ccc(OC)cc4)cc3c2N)cc1 (stereo not drawn)
TGI: > 50 µM
//
Compound: Cn1cc2c(=O)n3ncn(-c4ccc(Br)cc4)c3nc2n1
TGI: > 100 µM

Now look at this entry.
Query block: TGI lookup needed for O=C1C=CN(C2OC(CO)C(O)C2O)C(=O)C1 (stereo not drawn) , thanks.
Result block: > 2500 µM

Data origin, for the record: PubChem BioAssay (NCI)
